test: Oral bioavailability in rat at 23.7 mg/kg and measured up to 24 hrs by LC/MS analysis; type: ADME, organism-based; details: in vivo

{"Molecule": "C[C@H]1Cc2c([nH]c3cc(Cl)c(F)cc23)[C@@]2(N1)C(=O)Nc1ccc(Cl)cc12 [CIPARGAMIN]", "bioavailability": "100%"}

* * *

assay: Cmax in human at 150 mg, po for 3 days and measured on day 3 by LC-MS/MS analysis; conditions: in vivo

{"Compound": "C[C@H]1Cc2c([nH]c3cc(Cl)c(F)cc23)[C@@]2(N1)C(=O)Nc1ccc(Cl)cc12 [CIPARGAMIN]", "Unit symbol": "ng/mL", "Cmax": 1770}

FYI, the data here is from ChEMBL document CHEMBL4376815.
